The following binders are shown together with reported pKd values.
Target: T1, muIgG2a huCLL1 (human, UniProt Q5QGZ9 65-265, limits assumed)
T1 construct: It may be the same construct as muIgG2a monoFc huCLL1 (+) of the ELISA; also called huCLL1.mIgG2a; not shown: mouse IgG2a part
T1 sequence: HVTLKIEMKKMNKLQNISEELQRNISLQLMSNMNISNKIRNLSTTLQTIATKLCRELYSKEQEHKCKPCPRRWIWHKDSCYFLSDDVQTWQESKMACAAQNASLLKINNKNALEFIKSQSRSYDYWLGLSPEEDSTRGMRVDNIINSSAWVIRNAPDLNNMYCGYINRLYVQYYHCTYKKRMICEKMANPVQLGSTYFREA
Experiment: Octet BLI, mAb captured on FAB2G biosensor, antigen in solution
pKd: −log10 of the molar value.
MEASUREMENT_KIND: pKd

{"BINDER": "D2D88607-14083 (antibody, V domains shown, also called mAb_017) VH: EVQLLESGGDLVQPGGSLRLSCAASGFTFSSYAMNWVRQAPGKGLEWVSAISGSGVFTYYADSVKGRFTISRDNSENTLYLQMNSLRAEDTAVYYCAKEMQQLIQGDLFDIWGQGTMVTVSS VL: EIVLTQSPATLSLSPGERATLSCGASQSVSNNYLAWYQQKPGLAPRLLIYDASSRATGIPDRFSGSGSGTDFTLTISRLEPEDFAVYYCQQYGSSHTFGQGTKLEIK", "MEASUREMENT_KIND": "pKd", "REPORTED": 9.43}
{"BINDER": "D2AD88607-7048 (antibody, V domains shown, also called mAb_042) VH: EVQLVESGGGLVQPGGSLRLSCAASGFTFSSYDMHWVRQATGKGLEWVSAIGTAGDKYYLASVKGRFTISRENAKNSLYLQMNSLRAGDTAVYYCVRDSLTGPTVTPYMDVWGKGTTVTVSS VL: EIVLTQSPDFQSVTPKEKVTITCRASQSIGSGLHWYQQKPDQSPKLLIIYASQSISGVPSRFSGSGSGTDFTLTINSLEAEDAAAYYCHQSSSLPYTFGQGTKLEIK", "MEASUREMENT_KIND": "pKd", "REPORTED": 8.53}
{"BINDER": "D2AD88607-5141 (antibody, V domains shown, also called mAb_038) VH: QVQLVESGGGVVQPGRSLRLSCAASGFTFSSYGMHWVRQAPGKGLEWVAIISYDGSDKYYADSVKGRFTISRDNSKNTLYLQMNSLRAEDTAVYYCARNYNYYMDVWGKGTTVTVSS VL: EIVMTQSPATLSLSPGERATLSCRASQSVRSSYLSWYQQKPGQAPRLLIYGTSTRATGIPARFSGSGSGTDFTLTISSLQPEDFAVYYCQQDYNLPLTFGGGTKVEIK", "MEASUREMENT_KIND": "pKd", "REPORTED": 9.12}
{"BINDER": "D2D88607-9226 (antibody, V domains shown, also called mAb_023) VH: QVQLQQWGAGLLKPSETLSLTCAVYGGSFSGYYWSWIRQPPGKGLEWIGEFNHSGGPNYNPSLKSRVTISTDTSNNQFSLKLSSVTAADTAVYYCARGTTGNYYYYMDVWGKGTTVTVSS VL: AIQMTQSPSSLSASVGDRVTITCRASQGIRNDLGWYQQKPGKAPKLLIYAASSLQSGVPSRFSGSGSGTDFTLTISSLQPEDFATYYCLQDYIYPPTFGPGTKLEIK", "MEASUREMENT_KIND": "pKd", "REPORTED": 9.46}

Where do the numbers come from? From patent US20250388680A1.
